A collection of molecules and their measured kd
TARGET: T1, human PD-L2 antigen (Homo sapiens, UniProt Q9BQ51)
T1 sequence (Q9BQ51 20-273): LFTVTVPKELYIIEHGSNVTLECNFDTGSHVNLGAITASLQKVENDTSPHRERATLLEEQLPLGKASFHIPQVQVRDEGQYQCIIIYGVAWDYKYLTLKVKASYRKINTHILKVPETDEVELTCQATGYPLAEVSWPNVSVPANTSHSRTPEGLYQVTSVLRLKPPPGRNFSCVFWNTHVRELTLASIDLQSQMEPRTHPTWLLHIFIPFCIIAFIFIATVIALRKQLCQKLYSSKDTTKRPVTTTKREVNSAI
EXPERIMENT: Single cycle kinetics on Biacore 8K, binding to human PD-L2 antigen
MEASUREMENT_CONTEXT: Table 2, cell culture supernatants
Write it as a number; the unit s⁻¹ goes unstated.

Consider the worked cases shown below.
MOLECULE	READOUT_VALUE
VH0/VK1: anti-PD-L2 variant on hIgG1; SEQ ID NO: 1/SEQ ID NO: 10 (antibody, V domains shown, human IgG1 constant regions) VH: QVQLQQSGAELVRPGTSVKVSCKASGYAFSNYFIEWVKQRPGQGLEWIGLNIPGSGGSNYAEKFKGKATLTADKSSSTAYMQLSSLTSEDSAVYFCARRRLPPDWYFDVWGTGTTVTVSS VL: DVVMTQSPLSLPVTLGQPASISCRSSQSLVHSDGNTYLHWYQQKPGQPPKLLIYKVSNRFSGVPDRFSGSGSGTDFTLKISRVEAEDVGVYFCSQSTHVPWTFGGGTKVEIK	9.88e-05
VH8/VK2: humanized anti-PD-L2 variant; SEQ ID NO: 8/SEQ ID NO: 11 (antibody, V domains shown) VH: QVQLVQSGAEVKKPGSSVKVSCKASGYAFSNYFIEWVKQPPGKGLEWIGLNIPGSGGSNYAEKFKGRATITADKSTSTAYMELSSLRSEDTAVYYCARRRLPPDWYFDVWGQGTTVTVSS VL: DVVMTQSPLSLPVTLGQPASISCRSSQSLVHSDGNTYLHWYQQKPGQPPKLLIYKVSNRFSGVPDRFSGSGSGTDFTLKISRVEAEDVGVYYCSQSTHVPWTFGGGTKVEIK	0.000121
VH6/VK3: humanized anti-PD-L2 variant; SEQ ID NO: 6/SEQ ID NO: 12 (antibody, V domains shown) VH: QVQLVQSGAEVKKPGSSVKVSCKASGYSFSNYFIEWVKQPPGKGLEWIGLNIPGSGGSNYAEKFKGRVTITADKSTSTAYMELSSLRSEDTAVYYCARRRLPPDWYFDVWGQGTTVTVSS VL: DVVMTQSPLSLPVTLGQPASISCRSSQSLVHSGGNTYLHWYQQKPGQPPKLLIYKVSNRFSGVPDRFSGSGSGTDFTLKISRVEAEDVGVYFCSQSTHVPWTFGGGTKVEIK	0.000444

Now for another entry.
Suppose we examine the molecule VH7/VK1: humanized anti-PD-L2 variant; SEQ ID NO: 7/SEQ ID NO: 10 (antibody, V domains shown) VH: QVQLVQSGAELKKPGSSVKVSCKASGYAFSNYFIEWVKQPPGKGLEWIGLNIPGSGGSNYAEKFKGRATITADKSTSTAYMELSSLRSEDTAVYYCARRRLPPDWYFDVWGQGTTVTVSS VL: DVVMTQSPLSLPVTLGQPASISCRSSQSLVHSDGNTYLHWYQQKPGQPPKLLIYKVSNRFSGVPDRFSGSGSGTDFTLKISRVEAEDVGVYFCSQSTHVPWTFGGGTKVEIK ; what kd value has been reported?
0.000113
